# experiment_description: Inhibition of Glycogen synthase kinase-3 beta
assay_metric: IC50 (µM)
Number in µM, nothing else.

• Cc1ccc(-n2nc(C(N)=O)c3c2-c2c[nH]nc2CC3)cc1 = 0.46

# context switch: different compound, same IC50
INPUT: Fill in the blank: the reported IC50 of "Cc1ccc(-n2nc(C(N)=O)c3ccc4[nH]ncc4c32)cc1" is ____.
OUTPUT: 0.023

* * *

Reported pIC50, Cyclin-dependent kinase 2/cyclin A (Homo sapiens, UniProt P24941).
Recall that pIC50 is obtained by taking minus log10 of the concentration measured in molar.

Solved entries (count: 3):
• CCOC(=O)c1nn(-c2ccc(C)cc2)c2c1CCc1[nH]ncc1-2 = 5.07
• CCCCNS(=O)(=O)n1nc(C(=O)NC)c2ccc3[nH]ncc3c21 = 6.21
• COc1ccc(-n2nc(C(=O)O)c3ccc4[nH]ncc4c32)cc1 = 6.68

Note: attention shifts to another entry.
INPUT: Consider the molecule shown here: "COc1ccc(-n2nc(C(=O)O)c3c2-c2cn[nH]c2CC3)cc1" What is its recorded pIC50?
OUTPUT: 5.68

* * *

# tgt: Cyclin-dependent kinase 2/cyclin A (Homo sapiens, UniProt P24941)
# strict inequality: IC50 < 600 nM yields Fulfilled, everything else yields Not fulfilled

* CCOC(=O)c1nn(-c2ccc(OC)cc2)c2c1ccc1[nH]ncc12 | Not fulfilled
* CCCCNS(=O)(=O)n1nc(C(N)=O)c2ccc3[nH]ncc3c21 | Fulfilled
* COc1ccc(-n2nc(C(=O)NN)c3c2-c2cn[nH]c2CC3)cc1 | Not fulfilled

Okay, now this compound:
INPUT: Dear colleague, could you confirm whether IC50 of "CN1CCN(S(=O)(=O)c2ccc(-n3nc(C(N)=O)c4ccc5[nH]ncc5c43)cc2)CC1" falls below 600 nM? Thanks.
OUTPUT: Fulfilled

* * *

# tgt: Cyclin-dependent kinase 2/cyclin A (Homo sapiens)
pIC50: −log10 of the molar value.
// label = class 1 if pIC50 is not less than 6, otherwise class 0

INPUT: Could you verify whether the entry "CNS(=O)(=O)c1ccc(-n2nc(C(N)=O)c3ccc4[nH]ncc4c32)cc1" shows pIC50 of no less than 6?
OUTPUT: class 1

INPUT: Repeat with "Cc1cccc(-n2nc(C(N)=O)c3ccc4[nH]ncc4c32)c1"
OUTPUT: class 1

* * *

// values below are log10 of IC50; system is Cyclin-dependent kinase 2/cyclin A (Homo sapiens, UniProt P24941)
Scale: decimal log of IC50, IC50 in nM.

Example compounds with recorded log10 of IC50:
• NC(=O)c1nn(-c2ccc(OC(F)(F)F)cc2)c2c1CCc1[nH]ncc1-2 = 2.71
• NC(=O)c1nn(-c2ccc(C3=NCC=N3)cc2)c2c1ccc1[nH]ncc12 = 1.88
• CCCCNS(=O)(=O)c1ccc(-n2nc(C(=O)OCC)c3c2-c2cn[nH]c2CC3)cc1 = 4.00
• COc1ccc(-n2nc(C#N)c3ccc4[nH]ncc4c32)cc1 = 3.24

Please look at the following compound next.
INPUT: Need log10 of IC50 of "NC(=O)c1nn(CCO)c2c1CCc1[nH]ncc1-2" , thanks.
OUTPUT: 3.06

* * *

# tgt: Cyclin-dependent kinase 2/cyclin A (Homo sapiens, UniProt P24941)
assay_metric: pIC50
Schema: pIC50 number; meaning minus log10 of the concentration expressed in molar units.

Below, each entry is followed by its recorded pIC50 result.
- C=CCONC(=O)c1nn(S(=O)(=O)NCCCC)c2c1ccc1[nH]ncc12: 6.70
- NC(=O)c1nn(-c2ccc(C3=NCC=N3)cc2)c2c1CCc1n[nH]cc1-2: 6.60
- CC(=O)c1nn(-c2ccc(C)cc2)c2c1CCc1[nH]ncc1-2: 6.05
- CCCCNS(=O)(=O)n1nc(C(N)=O)c2c1-c1c[nH]nc1CC2: 6.68

INPUT: What value of pIC50 has been recorded for this entry: "NC(=O)c1nn(-c2cccnc2)c2c1CCc1[nH]ncc1-2"
OUTPUT: 5.80

INPUT: Another compound to check: "N#Cc1ccc(-n2nc(C(N)=O)c3c2-c2cn[nH]c2CC3)cc1"
OUTPUT: 6.72

INPUT: Entry CC(C)CC1Cc2c[nH]nc2-c2c[nH]nc21 (configuration not stated) please
OUTPUT: 7.06

* * *

Target or system Cyclin-dependent kinase 2/cyclin A (Homo sapiens); recorded quantity pIC50.
Schema: pIC50 number; meaning minus log10 of the concentration expressed in molar units.

* C=CCONC(=O)c1nn(-c2ccc(OC)cc2)c2c1CCc1[nH]ncc1-2 | 5.35
* NC(=O)c1nn(-c2ccc(Cl)cc2)c2c1CCc1[nH]ncc1-2 | 6.80
* CS(=O)(=O)c1ccc(-n2nc(C(N)=O)c3c2-c2cn[nH]c2CC3)cc1 | 7.52
* NC(=O)c1nn(-c2ccc(C(F)(F)F)cc2)c2c1CCc1[nH]ncc1-2 | 7.10
* C=CCONC(=O)c1nn(S(=O)(=O)NCCCC)c2c1CCc1n[nH]cc1-2 | 5.55
* COc1ccc(-n2nc(C(=O)NN)c3ccc4[nH]ncc4c32)cc1 | 6.68

INPUT: Record request: pIC50 value, item "CCOC(=O)c1nn(-c2ccc(OC)cc2)c2c1CCc1[nH]ncc1-2"
OUTPUT: 5.09

INPUT: Would you kindly repeat that for "CCCCNS(=O)(=O)n1nc(C(=O)O)c2c1-c1c[nH]nc1CC2" ?
OUTPUT: 5.92

INPUT: # iterate: "CNS(=O)(=O)c1ccc(-n2nc(C(N)=O)c3c2-c2cn[nH]c2CC3)cc1"
OUTPUT: 7.40
